Give TC50 (half toxic concentration for Vero cells) for every item shown.
- Tested on: Vero cells
- Assay Method Text: Cytotoxicity of the compounds for Vero cells (CPE observation, TC50)
- Type: cell-based
- Assay Context: no virus
- Procedure: 2. Sample treatment: the compounds of the present invention are dissolved in DMSO or diluent to prepare stock solution which is stored at −20° C. […] 4. […] The half toxic concentration (TC50) of each sample for Vero cells is calculated. […] The half inhibitory concentration (IC50) of each sample for enterovirus EV71 are calculated. Selectivity Index (SI) is calculated according to the following equation: SI=TC50/IC50.
Answers are plain numbers, in µg/mL.

Solved entries:
INSERT INTO assay_data (compound, result_units, observed_measurement) VALUES
  ('O=C(Nc1ccc(Cl)c(Cl)c1)[C@H]1O[C@@H]1C(=O)N(Cc1ccccc1)c1ccccc1 [Compound 3]', 'µg/mL', 5.14),
  ('O=C(Nc1nc2ccccc2s1)c1ccc(N(Cc2ccc(F)cc2)C(=O)[C@H]2O[C@@H]2C(=O)Nc2cccc(Br)c2)cc1 [Compound 18]', 'µg/mL', 1.43);

Dear colleague, could you please provide TC50 (half toxic concentration for Vero cells) for the compounds listed below?
1. O=C(Nc1cccc(F)c1)[C@H]1O[C@@H]1C(=O)N(Cc1ccccc1)c1ccccc1 [Compound 4]
2. COC(=O)c1csc(NC(=O)[C@H]2O[C@@H]2C(=O)N(Cc2ccccc2)c2ccc(C(=O)Nc3nc4ccccc4s3)cc2)n1 [Compound 41]
3. O=C(Nc1nc2ccccc2s1)c1ccc(N(Cc2ccc(F)cc2)C(=O)[C@H]2O[C@@H]2C(=O)Nc2nccs2)cc1 [Compound 32]
4. O=C(Nc1nc2ccccc2s1)c1ccc(N(Cc2ccc(F)cc2)C(=O)[C@H]2O[C@@H]2C(=O)Nc2cccc(Cl)c2Cl)cc1 [Compound 25]
5. O=C(Nc1nc2ccccc2s1)c1ccc(N(Cc2ccc(F)cc2)C(=O)[C@H]2O[C@@H]2C(=O)Nc2cccc(Cl)c2)cc1 [Compound 23]

[reply]
1. 7.41
2. 1.43
3. 1.19
4. 0.82
5. 1.43

---

- Test system: Vero cells
- Assay Method Text: Cytotoxicity of the compounds for Vero cells (CPE observation, TC50)
- Type: cell-based
- Assay Context: no virus
Note to self: TC50 (half toxic concentration for Vero cells) under 10 µg/mL means 1, ties and anything higher get -1.

INSERT INTO measurements (molecule, class_label) VALUES
  ('O=C(Nc1ccccc1Cl)[C@H]1O[C@@H]1C(=O)N(Cc1ccccc1)c1ccccc1 [Compound 11]', 1),
  ('O=C(Nc1nc2ccccc2s1)c1ccc(N(Cc2ccccc2)C(=O)[C@H]2O[C@@H]2C(=O)Nc2ccc(Cl)c(Cl)c2)cc1 [Compound 40]', 1);

[ask] Consider COc1ccc(NC(=O)[C@H]2O[C@@H]2C(=O)N(Cc2ccc(F)cc2)c2ccc(C(=O)Nc3nc4ccccc4s3)cc2)cc1 [Compound 20] . Does its TC50 (half toxic concentration for Vero cells) lie strictly below 10 µg/mL?
[reply] -1

[ask] Please state whether TC50 (half toxic concentration for Vero cells) is below 10 µg/mL for CCOC(=O)c1ccc(OCCC2CCN(c3ccc(C)nn3)CC2)cc1 [Pirodavir, reference compound]
[reply] 1

[ask] Say whether its TC50 (half toxic concentration for Vero cells) is strictly beneath 10 µg/mL. Entry: O=C(Nc1nc2ccccc2s1)c1ccc(N(Cc2ccc(F)cc2)C(=O)[C@H]2O[C@@H]2C(=O)Nc2ccc(Cl)cc2)cc1 [Compound 19]
[reply] 1
